# credit: the domain aggregation screens of Martell et al. (2025)

Assay: soluble fraction after stress (log2 fold change); higher = more stays soluble; pooled small domains, quantitative proteomics
Conditions: stress: pH 4
Response key: 1 (yes) means soluble fraction (log2) >= -0.4; 0 (no) means soluble fraction (log2) < -0.4.

{"SEQ_TEXT": "HMNMEYQKAINHIVQMVKDGQLIVGSKIPSERDLSESLGIGRNSTREAISILRGMGLVESRHGSGNYIAKD", "LABEL": "1 (yes)"}

Reported soluble fraction (log2) reaches at least -0.4 for HMTSSVIIPKLIGKTEEEAKVALAGLNVQVLYETHGDQANGIVIKQSFEEGTKVIKGVSIVITVNKVS ?
1 (yes)

====

Assay: soluble fraction after stress (log2 fold change); higher = more stays soluble; pooled small domains, quantitative proteomics
Details: stress: pH 4
Quick list: soluble fraction (log2) per entry.
The answer should be written as a number, with no unit following it.

Worked cases, answers included:
{"SEQ_TEXT": "HMYSYSGSVINTYKVPVSVVLKDANGSAIASWDLPVDQSLGISAKDIATSSGTIEITGDGVNETKTVTFTK", "soluble fraction (log2)": -0.159}
{"SEQ_TEXT": "HMTIHVMEIKSLLPIKILDESQHLVQSFSSKNPTSYNYRLIFSDKSKLENIKKTINENKDVESIEIRYA", "soluble fraction (log2)": -0.436}
{"SEQ_TEXT": "HMTEDELLAQFEEILDGYVGKPGGLIPALQTAQKLFGYLPKRVLQLISMKLDIPYSEVTGVVSFYSFFTTV", "soluble fraction (log2)": -1.12}
{"SEQ_TEXT": "HMDWREMTAWMAELLKRRTGDDVETWNARVRESGAHDEASLRAWLTEQGVTGYAQTLLVMERFGYPDFF", "soluble fraction (log2)": -1.67}
{"SEQ_TEXT": "HMGQNYTIVKGDSLWKIAQKQYGDGSQWKKIYDANKDAIESAAKKYGKKSSDSGKWIYPGVSLII", "soluble fraction (log2)": 0.134}

Now consider a different sequence.
Which value of soluble fraction (log2) has been reported for HMSLTEEQVDSGLKEIRLALLEADVALPVVKNFITNIKPKAIGQEIIRSTSPGQMIVKIVYDELVSIL in the records?
-0.85
